measuredTarget: human 5HT1A receptor (Homo sapiens)
Construct: expressed in transfected cells; host or cells: CHO cells, stably transfected
Sequence (P08908 whole entry): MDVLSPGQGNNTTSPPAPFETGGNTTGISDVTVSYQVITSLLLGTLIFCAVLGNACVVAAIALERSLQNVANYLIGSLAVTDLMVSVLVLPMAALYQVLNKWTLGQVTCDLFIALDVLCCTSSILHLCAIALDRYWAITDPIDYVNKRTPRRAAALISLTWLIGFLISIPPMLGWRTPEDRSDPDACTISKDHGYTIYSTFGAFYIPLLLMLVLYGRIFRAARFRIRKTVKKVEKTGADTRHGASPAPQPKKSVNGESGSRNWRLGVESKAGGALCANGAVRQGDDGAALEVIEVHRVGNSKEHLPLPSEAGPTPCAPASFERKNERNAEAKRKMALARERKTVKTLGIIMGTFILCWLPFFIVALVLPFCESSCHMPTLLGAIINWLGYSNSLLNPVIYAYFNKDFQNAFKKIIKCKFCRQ
measurementDescription: 5-HT1A receptor intrinsic activity assay (cAMP, RIA)
Type: cell-based
studyConditions: agonist activity: reversal of forskolin-stimulated cAMP in CHO cells with human 5-HT1A receptor; % printed only
measurementLabel: cAMP Emax
Hi, when you answer, please include the unit after the number. Thanks!

The following compounds have reported results that may help.
Entry `O=C(N[C@@H](Cc1ccccc1)CN1CCN(c2nsnc2Cl)CC1)C1CCCCC1.O=C(O)/C=C/C(=O)O` , cAMP Emax reported as 93.00%

Entry `CN(C(=O)C1CCCCC1)[C@H](Cc1ccccc1)CN1CCN(c2nsnc2Cl)CC1` , cAMP Emax reported as 0.00%

Entry `COc1nsnc1N1CCN(C[C@@H](Cc2cccnc2)NC(=O)C2(C)CCCCC2)CC1` , cAMP Emax reported as 0.000%

Let us examine a further case.
Entry `COc1nsnc1N1CCN(C[C@@H](Cc2ccccc2)N(C)C(=O)C2CCCCC2)CC1` , cAMP Emax reported as 0.00%

* * *

measuredTarget: UniProtKB P08908
measurementDescription: 5-HT1A receptor binding assay ([3H] 8-OH-DPAT displacement)
studyConditions: displacement of [3H] 8-OH-DPAT (1.5 nM) in CHO cells stably transfected with the human 5HT1A receptor
Rule: measured Ki below 5 nM gets yes; anything equal to or greater than 5 nM gets no.

Item O=C(N[C@@H](Cc1ccccc1)CN1CCN(c2nsnc2Cl)CC1)c1ccncc1 [Compound 5] : Ki beneath 5 nM, strictly?
no

Item COc1nsnc1N1CCN(CC(Cc2ccccc2)N(C)C(=O)c2ccccc2)CC1 (stereo not drawn) [Compound 9] : Ki beneath 5 nM, strictly?
no

Item COc1nsnc1N1CCN(C[C@@H](Cc2ccccc2)N(C)C(=O)C2CCCCC2)CC1 [Compound 8] : Ki beneath 5 nM, strictly?
yes

---
Item CN(C(=O)C1CCCCC1)[C@H](Cc1ccccc1)CN1CCN(c2nsnc2Cl)CC1 [Compound 7] : Ki beneath 5 nM, strictly?
yes

Item O=C(N[C@@H](Cc1ccccc1)CN1CCN(c2nsnc2Cl)CC1)C1CCCCC1.O=C(O)/C=C/C(=O)O [Compound 4, fumarate] : Ki beneath 5 nM, strictly?
yes

Item COc1nsnc1N1CCN(C[C@@H](Cc2cccnc2)NC(=O)C2(C)CCCCC2)CC1 [Compound 11] : Ki beneath 5 nM, strictly?
yes
